Readings of Activity for the listed compounds
species on record: Rattus norvegicus; test: Displacement of [3H]-BTX-B from neuronal voltage-gated sodium channel in rat cerebral cortex synaptoneurosomes at 40 uM; type: tissue-based

# COMPOUND, Activity / %
records = [
    ("CCCCCCCC(O)(C(N)=O)c1cc(C)c(NC(=O)CN(CC)CC)c(C)c1 (centres undefined)", 83),
    ("CCN(CC)CC(=O)Nc1ccc(C2(c3ccccc3)NC(=O)NC2=O)cc1 (centres undefined)", 50),
    ("CCN(CC)CC(=O)Nc1c(C)cc(C(O)(C(N)=O)c2ccccc2)cc1C (centres undefined)", 16),
    ("CCCCCCCCCC(O)(C(N)=O)c1cc(C)c(NC(=O)CN(CC)CC)c(C)c1 (centres undefined)", 63),
]

---

assay: Displacement of [3H]-BTX-B from neuronal voltage-gated sodium channel in rat cerebral cortex synaptoneurosomes; format: tissue-based
pIC50: −log10 of the molar value. Where a name gives a salt, the structure may show the parent alone.
Readings of pIC50 for the listed compounds

# COMPOUND, pIC50
rows = [
    ("O=C1NC(=O)C2(CCc3ccccc32)N1 (stereo not given)", 2.68),
    ("CCN1C(=O)NC(=O)C1(C)c1ccccc1 (stereo not given)", 3.14),
    ("O=C1NC(=O)C2(CCCc3ccccc32)N1 (stereo not given)", 3.07),
    ("CCCCC1(c2ccccc2)NC(=O)NC1=O (stereo not given)", 3.99),
    ("CCCCCCC1(c2ccccc2)NC(=O)NC1=O (stereo not given)", 4.89),
    ("CCCCCCCC1(c2ccccc2)NC(=O)NC1=O (stereo not given)", 5.30),
    ("CCCCCCCC(O)(C(N)=O)c1ccccc1 (stereo not given)", 5.05),
    ("CCCCCC1(c2ccccc2)NC(=O)N(C)C1=O (stereo not given)", 4.41),
    ("CCCCC1(c2ccc(C)cc2)NC(=O)NC1=O (stereo not given)", 4.02),
    ("CCOc1ccc(C(=O)OCCN(CC)CC)cc1", 4.62),
    ("CCCNC(C)C(=O)Nc1ccccc1C (stereo not given)", 4.27),
    ("O=C1NC(=O)C(c2ccccc2)(c2ccccc2)N1", 4.40),
    ("CCN(CC)CCOC(=O)c1ccc(N)cc1", 3.96),
    ("CCCCCCCCC1(c2ccccc2)NC(=O)NC1=O (stereo not given)", 5.30),
    ("O=C1NC(=O)C(c2ccccc2)(C2CCCCC2)N1 (stereo not given)", 4.24),
    ("O=C1C(c2ccccc2)N2CCCCCN1C2=O (stereo not given)", 3.37),
    ("CC(CNC1CCCCC1)OC(=O)c1ccccc1 (stereo not given)", 5.15),
    ("COC(=O)[C@H]1[C@@H](OC(=O)c2ccccc2)C[C@@H]2CC[C@H]1N2C", 4.31),
    ("CCCOc1cc(N)ccc1C(=O)OCCN(CC)CC [PROPOXYCAINE HYDROCHLORIDE]", 4.62),
    ("O=C1NC(=O)C2(CCCCc3ccccc32)N1 (stereo not given)", 3.60),
    ("O=C1NC(=O)C2(CCCCCc3ccccc32)N1 (stereo not given)", 3.60),
    ("CCCCC1(c2ccccc2C)NC(=O)NC1=O (stereo not given)", 3.65),
    ("CCCOc1ccc(C(=O)OCCN(CC)CC)cc1N", 5.70),
    ("CCCCC1(c2cccc(C)c2)NC(=O)NC1=O (stereo not given)", 4.24),
    ("CC12C(=O)NC(=O)N1CCc1ccccc12 (stereo not given)", 3.60),
]
